# IC50 annotations
- SYSTEM TESTED: Carboxy-terminal domain RNA polymerase II polypeptide A small phosphatase 1 (Homo sapiens)
- Sequence (Q9GZU7 whole entry, the tested form may be a part): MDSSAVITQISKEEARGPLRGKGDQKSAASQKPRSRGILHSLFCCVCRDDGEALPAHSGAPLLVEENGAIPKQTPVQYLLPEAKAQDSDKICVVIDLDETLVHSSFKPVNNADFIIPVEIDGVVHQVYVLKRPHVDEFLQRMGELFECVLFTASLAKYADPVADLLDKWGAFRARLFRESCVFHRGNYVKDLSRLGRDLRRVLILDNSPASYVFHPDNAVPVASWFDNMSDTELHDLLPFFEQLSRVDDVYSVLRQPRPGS
- EXPERIMENT NOTES: inhibitors of CTDSP1, concentration-response testing, biochemical assay, absorbance-based, actives from ultra-high-throughput screening (AID 540297)
- Format: functional
Active and inactive are the calls of the source.

The following compounds have reported results that may help.
| COMPOUND | RESULT |
| --- | --- |
| Cc1nc2ccccn2c1C(=O)N/N=C/c1ccc([N+](=O)[O-])o1 | 5.79 µM (active) |
| O=C(O)COc1ccc(Br)cc1/C=N/O | 8.03 µM (active) |
| N#Cc1c(SCC(=O)Nc2cccc(C(F)(F)F)c2)sc2c(O)cc(O)nc12 | 10.4 µM (active) |
| CCCn1c(=O)[nH]c(=O)c2c1nc(-c1ccccc1)n2CCN1CCOCC1 | 47.8 µM (active) |
| O=C(CN1C(=O)N/C(=C\c2ccccc2OCc2ccc(C(=O)O)cc2)C1=O)Nc1ccccc1F | 7.13 µM (active) |
| Cc1nnc(SCC2=C(C(=O)O)N3C(=O)C(NC(=O)COc4ccccc4)C3SC2)s1 (stereo not given) | 8.97 µM (active) |
| O=C(Nc1cccc(-c2nc3ccccc3s2)c1)c1cc(=O)c2ccccc2o1 | 5.07 µM (active) |
| Cc1ccc(NC(=O)CN2C(=O)S/C(=C\c3cc(Cl)c(OCC(=O)O)c(Cl)c3)C2=O)cc1 | 2.5 µM (active) |

INPUT: Reported IC50 for Carboxy-terminal domain RNA polymerase II polypeptide A small phosphatase 1 (Homo sapiens), given CC(C)c1ccc2oc(-c3ccc(NC(=O)c4nnc[nH]4)cc3)nc2c1 ?
OUTPUT: 6.65 µM (active)

INPUT: Proceed to CC1C=CC(C)C(C(=O)O)C1C(=O)O (stereo not given)
OUTPUT: 4.36 µM (active)

###

Reported EC50 values follow for various molecules
- SYSTEM TESTED: SWI/SNF-related matrix-associated actin-dependent regulator of chromatin subfamily A member 2 (Homo sapiens)
- Sequence (P51531 whole entry): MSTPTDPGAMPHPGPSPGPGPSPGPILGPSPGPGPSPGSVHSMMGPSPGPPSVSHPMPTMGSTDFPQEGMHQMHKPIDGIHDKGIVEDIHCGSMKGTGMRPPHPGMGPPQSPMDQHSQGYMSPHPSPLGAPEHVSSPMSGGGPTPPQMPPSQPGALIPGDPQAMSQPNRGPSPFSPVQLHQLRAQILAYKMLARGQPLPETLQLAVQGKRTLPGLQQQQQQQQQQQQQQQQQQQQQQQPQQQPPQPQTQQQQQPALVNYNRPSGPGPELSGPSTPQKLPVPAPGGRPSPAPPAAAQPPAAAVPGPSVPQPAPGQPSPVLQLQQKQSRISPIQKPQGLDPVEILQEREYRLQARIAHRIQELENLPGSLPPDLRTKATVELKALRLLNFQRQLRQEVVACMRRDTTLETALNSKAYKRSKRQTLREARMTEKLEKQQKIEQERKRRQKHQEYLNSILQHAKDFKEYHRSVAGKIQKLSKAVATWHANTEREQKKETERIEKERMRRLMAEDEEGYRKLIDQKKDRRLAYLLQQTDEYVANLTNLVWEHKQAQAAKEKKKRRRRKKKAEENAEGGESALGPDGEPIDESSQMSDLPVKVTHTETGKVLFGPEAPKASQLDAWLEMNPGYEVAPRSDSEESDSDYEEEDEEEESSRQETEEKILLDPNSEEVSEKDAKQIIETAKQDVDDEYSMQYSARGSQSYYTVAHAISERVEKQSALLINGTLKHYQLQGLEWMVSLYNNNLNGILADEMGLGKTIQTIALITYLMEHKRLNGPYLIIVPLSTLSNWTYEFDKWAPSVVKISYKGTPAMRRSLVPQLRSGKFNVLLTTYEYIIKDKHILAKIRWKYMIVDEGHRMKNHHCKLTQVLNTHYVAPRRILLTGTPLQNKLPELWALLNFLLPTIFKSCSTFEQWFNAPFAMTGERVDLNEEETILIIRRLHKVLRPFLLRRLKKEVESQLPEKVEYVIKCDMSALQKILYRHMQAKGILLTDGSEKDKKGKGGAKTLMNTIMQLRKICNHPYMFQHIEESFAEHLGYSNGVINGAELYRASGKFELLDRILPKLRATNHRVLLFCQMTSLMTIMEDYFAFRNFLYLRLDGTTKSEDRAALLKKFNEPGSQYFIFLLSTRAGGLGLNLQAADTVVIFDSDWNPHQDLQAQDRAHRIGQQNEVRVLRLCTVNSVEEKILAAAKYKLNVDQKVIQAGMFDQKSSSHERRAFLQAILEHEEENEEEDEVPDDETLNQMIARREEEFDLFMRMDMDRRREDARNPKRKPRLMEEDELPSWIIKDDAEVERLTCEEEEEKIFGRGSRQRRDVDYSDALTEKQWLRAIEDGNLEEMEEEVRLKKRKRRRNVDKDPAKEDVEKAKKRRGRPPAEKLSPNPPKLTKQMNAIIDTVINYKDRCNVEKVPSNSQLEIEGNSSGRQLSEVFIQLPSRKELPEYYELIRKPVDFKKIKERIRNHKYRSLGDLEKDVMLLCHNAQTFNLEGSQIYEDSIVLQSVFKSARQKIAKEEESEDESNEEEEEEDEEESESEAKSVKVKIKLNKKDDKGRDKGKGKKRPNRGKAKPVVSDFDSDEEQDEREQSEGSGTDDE
- EXPERIMENT NOTES: Luminescence-based cell-based high throughput dose response assay to identify activators of the function of SWI/SNF related, matrix associated, actin dependent regulator of chromatin, subfamily a, member 2 (SMARCA2, BRM).
- Assay type: functional
Calls of active or inactive are those of the source.

Past entries and their recorded results:
| CPD SMILES | RESULT |
| --- | --- |
| CN(C)CCN(C(=O)/C=C/c1cccs1)c1nc2c(F)cc(F)cc2s1 | > 91.1 µM (inactive) |
| COCCN1CCN(c2c(C)c(C)nc3cc(-c4cccc(OC)c4)nn23)CC1 | > 91.1 µM (inactive) |
| COC(=O)N/N=C(\C)c1ccccc1Br | > 91.1 µM (inactive) |

Now, please, on to the next molecule.
INPUT: I have this molecule here, CCOc1ccc(NC(=O)c2cnsn2)cc1 , and I need its recorded EC50.
OUTPUT: > 91.2 µM (inactive)

###

- SYSTEM TESTED: Cytochrome P450 2C19 (Homo sapiens, UniProt P33261)
- Sequence (P33261 whole entry): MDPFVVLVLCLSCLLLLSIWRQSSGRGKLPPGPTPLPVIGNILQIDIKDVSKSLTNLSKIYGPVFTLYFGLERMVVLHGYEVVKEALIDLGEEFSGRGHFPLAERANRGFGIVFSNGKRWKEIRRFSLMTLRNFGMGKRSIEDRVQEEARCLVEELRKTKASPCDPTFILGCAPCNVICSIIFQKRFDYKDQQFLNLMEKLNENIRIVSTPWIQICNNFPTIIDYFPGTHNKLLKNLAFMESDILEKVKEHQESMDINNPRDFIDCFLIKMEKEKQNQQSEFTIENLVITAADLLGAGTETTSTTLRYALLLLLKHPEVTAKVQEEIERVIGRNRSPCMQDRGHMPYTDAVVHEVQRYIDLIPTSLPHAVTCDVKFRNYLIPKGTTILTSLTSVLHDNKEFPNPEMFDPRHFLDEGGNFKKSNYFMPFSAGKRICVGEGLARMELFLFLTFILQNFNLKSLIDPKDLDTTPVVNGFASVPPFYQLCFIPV
- EXPERIMENT NOTES: Cytochrome panel assay with activity outcomes. Panel member name: p450-cyp2c19 Compounds with AC50 equal or less than 10 uM are considered active
- Format: functional
- DETAILS: read-out: AC50
Active and inactive are the calls of the source.
MEASURED QUANTITY: AC50

Here's what some known entries look like.
| COMPOUND | SYSTEM TESTED | RESULT |
| --- | --- | --- |
| c1ccc(CNc2nc(-c3cccnc3)nc3ccccc23)cc1 | Cytochrome P450 2C19 (Homo sapiens, UniProt P33261) | 15.8 µM (active) |
| N#Cc1cccc(-c2cncnc2-n2ccnc2)c1 | Cytochrome P450 2C19 (Homo sapiens, UniProt P33261) | 39.8 µM (inconclusive) |
| CC(Cc1ccccc1)NC(=O)CSc1nc2nc3c(cc2c(=O)n1-c1ccccc1)COC(C)(C)C3 (centres undefined) | Cytochrome P450 2C19 (Homo sapiens, UniProt P33261) | 35.5 µM (inconclusive) |
| OCc1ccc(-c2nn(Cc3ccccc3)c3ccccc23)o1 | Cytochrome P450 2C19 (Homo sapiens, UniProt P33261) | 10 µM (inconclusive) |
| COc1cc(NC(=O)C2CCN(S(=O)(=O)c3cccc4nonc34)CC2)cc(OC)c1 | Cytochrome P450 2C19 (Homo sapiens, UniProt P33261) | 15.8 µM (inconclusive) |
| CCNc1ncc2ncc(=O)n(Cc3cccs3)c2n1 | Cytochrome P450 2C19 (Homo sapiens, UniProt P33261) | 20 µM (inconclusive) |
| CCCCNC(=O)NS(=O)(=O)c1cnccc1Sc1ccc(Cl)cc1 | Cytochrome P450 2C19 (Homo sapiens, UniProt P33261) | 22.4 µM (inconclusive) |
| O=C(Nc1cccc(F)c1)N1CCCC2(CCN(C(=O)Oc3ccccc3)CC2)C1 | Cytochrome P450 2C19 (Homo sapiens, UniProt P33261) | 25.1 µM (inconclusive) |

INPUT: What is its AC50 for Cytochrome P450 2C19 (Homo sapiens, UniProt P33261)? Entry: CCCCN1C(=O)/C(=C/c2ccc(N(C)C)cc2)C(=O)N(Cc2ccco2)C1=O
OUTPUT: 31.6 µM (inconclusive)

###

- SYSTEM TESTED: Voltage-gated N-type calcium channel alpha-1B subunit/Amyloid beta A4 precursor protein-binding family A member 1 (Homo sapiens, UniProt Q00975+Q02410)
- Type: protein assay
Activity calls are given as the source filed them.
Return exactly one item of class 1 for active, class 0 for inactive

Worked set:
| COMPOUND | QUALITATIVE LABEL |
| --- | --- |
| CCOC(=O)c1c2ccc(OCC(=O)NN)cc2n2ccccc12 | class 1 |
| CCN(C(=O)CN1C(=O)S/C(=C\C=C\c2ccccc2)C1=O)C1CCS(=O)(=O)C1 (stereo unspecified) | class 0 |
| O=C(Nc1ccc(F)cc1)C1=CC(=O)N2CCN=C2S1 | class 0 |
| O=C(COC(=O)CNC(=O)c1ccc(-c2ccccc2)cc1)NCc1ccco1 | class 1 |
| CC1=C(C)C[S+]([O-])N(S(=O)(=O)c2ccc(Cl)cc2)C1 (stereo unspecified) | class 0 |

Please find the next compound below.
INPUT: Please share the test call associated with Cc1cc(=O)oc2cc(NC(=O)c3cccc(Br)c3)ccc12 .
OUTPUT: class 0

###

- SYSTEM TESTED: Eukaryotic translation initiation factor 4E (Mus musculus)
- Sequence (P63073 whole entry): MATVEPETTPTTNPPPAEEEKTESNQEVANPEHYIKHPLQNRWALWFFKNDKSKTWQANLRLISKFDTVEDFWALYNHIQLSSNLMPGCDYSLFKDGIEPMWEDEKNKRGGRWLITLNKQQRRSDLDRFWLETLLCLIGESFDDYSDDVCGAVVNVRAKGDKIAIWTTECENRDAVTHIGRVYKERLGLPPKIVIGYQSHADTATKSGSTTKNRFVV
- EXPERIMENT NOTES: eIF4E–eIF4G protein interaction inhibitors, dose response, biochemical, TR-FRET (AID 855);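 further: potency for disrupting eIF4E binding to eIF4GI seen as loss of FRET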
- Format: functional
Active and inactive are the calls of the source.
Please reply with one of these outcomes: YES = active, NO = inactive

Completed entries (count: 3):
| COMPOUND | SYSTEM TESTED | QUALITATIVE LABEL |
| --- | --- | --- |
| COC(=O)/C=C/C(=O)N1CCN(c2ccccc2C)CC1 | Eukaryotic translation initiation factor 4E (Mus musculus) | NO |
| O=C(O)CCSc1nnc(SCC(=O)NCC(F)(F)F)s1 | Eukaryotic translation initiation factor 4E (Mus musculus) | NO |
| CC(C)(O)C1Cc2cc(/C=C/C(=O)O)c(O)cc2O1 (stereo not given) | Eukaryotic translation initiation factor 4E (Mus musculus) | YES |

INPUT: Each compound tested received a call. Report the one for O=C(C1CCN(S(=O)(=O)c2cccnc2)CC1)N1CCN(c2cccc(Cl)c2)CC1 .
OUTPUT: NO

INPUT: Here is the next compound: Cc1ccc(-c2cc(-c3ccc(Cl)cc3)c(C#N)c(N)n2)o1
OUTPUT: NO

###

- SYSTEM TESTED: UniProt:P0AE70
- Sequence (P0AE70 whole entry): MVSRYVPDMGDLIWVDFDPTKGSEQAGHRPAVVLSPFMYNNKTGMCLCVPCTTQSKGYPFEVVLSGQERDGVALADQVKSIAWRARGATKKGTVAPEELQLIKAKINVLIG
- EXPERIMENT NOTES: MazF toxin RNase activators, dose response, biochemical, fluorescence, single-stranded RNA substrate, uHTS hits (AID 588481)
- Format: functional
Active and inactive are the calls of the source.
Please answer using one outcome listed in active, inactive

| COMPOUND | QUALITATIVE LABEL |
| --- | --- |
| Br.N=c1n(CC(=O)c2ccc([N+](=O)[O-])cc2)c2ccccc2n1Cc1ccc(Cl)cc1 | inactive |

INPUT: // return assay outcome for O=C(CSc1nnc2scc(-c3ccccc3)n12)c1ccc2c(c1)OCCO2
OUTPUT: inactive

INPUT: Moving on to the next compound: Oc1ccc2c(c1)OCC1(O)Cc3cc(O)c(O)cc3C21 (stereo not given)
OUTPUT: inactive

INPUT: Try CCCn1c(O)c(N=Nc2ccc3ccccc3n2)c2ccccc21 next.
OUTPUT: inactive

INPUT: Cool, now CC(C)=CCc1cc(-c2oc3cc(O)cc(O)c3c(=O)c2O)ccc1O
OUTPUT: active
